# targetOrSystem: ER (Homo sapiens)
# Construct: endogenous in cells
# assaySummary: ER antagonism (T47D ERE luciferase), T47d-kb-Luc cells
# testConditions: read-out: IC50 (ER antagonistm)
Hi there, I'd appreciate the recorded IC50 for every entry that follows.

Completed entries (count: 4):
molecule	IC50
CC/C(=C(/c1ccc(B(O)O)cc1)c1ccc(N2CCN(CCCC3CCN(c4ccc5c(c4)C(=O)N(C4CCC(=O)NC4=O)C5=O)CC3)CC2)cc1)c1ccccc1 (centres unmarked)	0.01 to 0.05 µM
CC/C(=C(/c1ccc(B(O)O)cc1)c1ccc(C2CCN(CCCN3CCN(c4ccc5c(c4)CN(C4CCC(=O)NC4=O)C5=O)CC3)CC2)cc1)c1ccccc1 (centres unmarked)	< 0.01 µM
CC/C(=C(/c1ccc(B(O)O)cc1)c1ccc(N2CCN(CCC3CCN(c4ccc5c(c4)CN(C4CCC(=O)NC4=O)C5=O)CC3)CC2)cc1)c1ccccc1 (centres unmarked)	< 0.01 µM
CC/C(=C(/c1ccc(OCCN2CCC(CCN3CCN(c4ccc5c(c4)CN(C4CCC(=O)NC4=O)C5=O)CC3)CC2)cc1)c1ccc(B(O)O)cc1)c1ccccc1 (centres unmarked)	0.01 to 0.05 µM

In the following, a different molecule is considered.
Sample CC/C(=C(/c1ccc(B(O)O)cc1)c1ccc(N2CCC(CCN3CCN(c4ccc5c(c4)C(=O)N(C4CCC(=O)NC4=O)C5=O)CC3)CC2)cc1)c1ccccc1 (centres unmarked) — what was its IC50?
0.01 to 0.05 µM

###

# targetOrSystem: ER (Homo sapiens)
# Construct: endogenous in cells
# assaySummary: ER antagonism (T47D ERE luciferase), T47d-kb-Luc cells
# testConditions: read-out: IC50 (ER antagonistm)
pIC50: −log10 of the molar value.
Hi there, I'd appreciate the recorded pIC50 for every entry that follows.

Please give pIC50 for each item listed below.
1. CC/C(=C(\c1ccc(OCCN2CCN(c3ccc4c(c3)C(=O)N(C3CCC(=O)NC3=O)C4=O)CC2)cc1)c1ccc(B(O)O)cc1)c1ccccc1 (stereo not drawn)
2. CCC(=C(c1ccc(OCCN2CCN(CC3CCN(c4ccc5c(c4)C(=O)N(C4CCC(=O)NC4=O)C5=O)CC3)CC2)cc1)c1ccc(B(O)O)cc1)c1ccccc1 (stereo in doubt)
3. CC/C(=C(/c1ccc(B(O)O)cc1)c1ccc(N2CCN(CCCN3CCN(c4ccc5c(c4)C(=O)N(C4CCC(=O)NC4=O)C5=O)CC3)CC2)cc1)c1ccccc1 (stereo not drawn)

1: 7.30 to 8.00; 2: 7.30 to 8.00; 3: > 8.00

###

# targetOrSystem: ER (Homo sapiens, UniProt P03372)
# Construct: endogenous in cells; host or cells: T47d-kb-Luc (T47D stably transfected with a luciferase reporter gene only)
# Sequence (P03372 1-595): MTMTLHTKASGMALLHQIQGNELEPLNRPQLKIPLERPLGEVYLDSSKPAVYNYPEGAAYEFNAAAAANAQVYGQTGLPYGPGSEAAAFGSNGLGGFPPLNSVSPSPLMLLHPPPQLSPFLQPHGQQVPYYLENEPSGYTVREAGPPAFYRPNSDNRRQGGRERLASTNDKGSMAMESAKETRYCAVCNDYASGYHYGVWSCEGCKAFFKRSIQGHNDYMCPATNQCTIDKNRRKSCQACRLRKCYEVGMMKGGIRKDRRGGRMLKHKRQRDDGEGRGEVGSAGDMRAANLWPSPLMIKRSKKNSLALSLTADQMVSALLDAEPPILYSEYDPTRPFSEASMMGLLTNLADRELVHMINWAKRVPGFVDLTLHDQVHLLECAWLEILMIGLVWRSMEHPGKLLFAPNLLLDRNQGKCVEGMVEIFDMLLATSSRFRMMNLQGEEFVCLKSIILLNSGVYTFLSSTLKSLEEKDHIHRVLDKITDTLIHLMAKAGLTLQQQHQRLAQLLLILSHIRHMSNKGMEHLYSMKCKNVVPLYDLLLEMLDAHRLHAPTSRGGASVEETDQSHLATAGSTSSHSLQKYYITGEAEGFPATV
# assaySummary: ER antagonism (T47D ERE luciferase), T47d-kb-Luc cells
# Assay type: cell-based
# testConditions: read-out: IC50 (ER antagonistm)
experimentalEndpoint: IC50

Please give IC50 for each item listed below.
1. CC/C(=C(/c1ccc(O)cc1)c1ccc(OCCN2CCN(C(=O)N3CCC(N4CCN(c5ccc6c(c5)CN(C5CCC(=O)NC5=O)C6=O)CC4)CC3)CC2)cc1)c1ccccc1 (centres unmarked) [Compound 94]
2. CC/C(=C(/c1ccc(B(O)O)cc1)c1ccc(N2CCN(CCCN3CCN(c4ccc5c(c4)CN(C4CCC(=O)NC4=O)C5=O)CC3)CC2)cc1)c1ccccc1 (centres unmarked) [Compound 46]
3. CC/C(=C(/c1ccc(B(O)O)cc1)c1ccc(N2CCC(CN3CCN(c4ccc5c(c4)C(=O)N(C4CCC(=O)NC4=O)C5=O)CC3)CC2)cc1)c1ccccc1 (centres unmarked) [Compound 6]
4. CC/C(=C(/c1ccc(OCCN2CCN(CC3CCN(c4ccc5c(c4)CN([C@H]4CCC(=O)NC4=O)C5=O)CC3)CC2)cc1)c1ccc(B(O)O)cc1)c1ccccc1 [Compound 69]
5. CC/C(=C(/c1ccc(O)cc1)c1ccc(OCCN2CCN(C(=O)N3CCN(c4ccc5c(c4)CN([C@@H]4CCC(=O)NC4=O)C5=O)CC3)CC2)cc1)c1ccccc1 [Compound 82]

1: < 10 nM; 2: < 10 nM; 3: 10 to 50 nM; 4: < 10 nM; 5: < 10 nM
